Origin of measurements: PubChem BioAssay (NCI)

Assign growth inhibition to each entry below.
- ASSAY PROCEDURE: NCI Yeast Anticancer Drug Screen. Data for the rad14 strain (AID 159);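 note: 0% = growth of vehicle-treated control cultures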
- MEASUREMENT CONTEXT: S. cerevisiae rad14 strain growth inhibition; at 11.0 µM; active compounds read high
This is part of a sample that, as a whole, favours compounds with a hit. Of some 79,000 tested, about 15% had one in any assay.
Answers are plain numbers, in %.

Some compounds with recorded growth inhibition:
CC1(C)CC(=O)C(/C=N/c2nc(-c3ccccc3)cs2)=C(O)C1 ... 17
CCCCN(CCCC)C(=O)/C=C/c1ccccc1 ... -3
O=C1Nc2ccc(Br)cc2C1=Nc1ccc2c(c1)OCO2 ... -32

Give growth inhibition for each of the items listed below.
1. OC(CCNCc1ccccc1)c1ccc2ccccc2c1 (stereo not given)
2. CCCCCCC(O)CNCc1ccnc2ccc(OC)cc12 (stereo not given)
3. Nc1ccc2c(c1)C(=O)c1ccc(F)cc1-2

Response line:
1: 85; 2: 33; 3: 15

Give growth inhibition for each of the items listed below.
1. COc1ccc(/C=C/c2sc3ccccc3[n+]2CCCCI)cc1OC
2. CC1=C(SCc2ccccc2)C(=O)c2ccccc2C1=O
3. CCCCCCCCCCCCCCCCCC(=O)NCCCN(C)C
4. O=C(O)CCCC1CCCc2c1ccc1ccccc21 (stereo not given)

Response line:
-7
-35
-40
13
